All figures here come from paper PMC6681697.

- Measured target: PSMA (Homo sapiens, UniProt Q04609)
- Construct: because it expresses PSMA endogenously and is commonly used to evaluate PSMA-targeting radiotracers; endogenous in cells; host or cells: LNCaP cells
- Sequence (Q04609 whole entry): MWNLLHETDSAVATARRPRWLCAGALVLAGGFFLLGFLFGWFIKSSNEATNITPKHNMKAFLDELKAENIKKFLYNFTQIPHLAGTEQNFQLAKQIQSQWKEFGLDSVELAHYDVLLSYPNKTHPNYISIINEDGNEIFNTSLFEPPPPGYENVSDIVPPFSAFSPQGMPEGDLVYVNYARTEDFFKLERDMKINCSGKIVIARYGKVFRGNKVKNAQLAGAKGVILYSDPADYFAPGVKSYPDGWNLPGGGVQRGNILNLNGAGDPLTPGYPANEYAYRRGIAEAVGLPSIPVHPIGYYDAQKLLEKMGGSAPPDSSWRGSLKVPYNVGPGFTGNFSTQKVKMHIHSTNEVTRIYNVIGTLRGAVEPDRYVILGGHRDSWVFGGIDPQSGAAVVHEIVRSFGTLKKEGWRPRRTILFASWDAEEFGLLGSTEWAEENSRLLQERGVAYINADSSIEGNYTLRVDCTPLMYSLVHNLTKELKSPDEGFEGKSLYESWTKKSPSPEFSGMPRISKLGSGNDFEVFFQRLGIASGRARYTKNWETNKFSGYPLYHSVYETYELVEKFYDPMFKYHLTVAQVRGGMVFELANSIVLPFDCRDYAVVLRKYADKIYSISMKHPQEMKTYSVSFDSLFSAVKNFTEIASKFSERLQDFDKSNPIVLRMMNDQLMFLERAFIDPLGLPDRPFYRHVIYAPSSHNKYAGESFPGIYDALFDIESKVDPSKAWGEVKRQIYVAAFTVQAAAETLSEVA
- Method: In vitro competition binding assay on LNCaP cells with ^18F-DCFPyL as radioligand
Reported endpoint: Ki (µM)

Check out these entries, answers already filled in.
Query: Value lookup for Ki; key = C[N+](C)(Cc1cn(CC(=O)NCCOCCOCCC(=O)N[C@@H](Cc2ccc3ccccc3c2)C(=O)NCCCC[C@H](NC(=O)N[C@@H](CCC(=O)O)C(=O)O)C(=O)O)nn1)C[B-](F)(F)F [^18F-7]
Reply: 0.0165

Query: Value lookup for Ki; key = O=C(O)CC[C@H](NC(=O)N[C@@H](CCCCNC(=O)c1ccc(Cn2cc(C[n+]3ccc([B-](F)(F)F)cc3)nn2)nc1)C(=O)O)C(=O)O [^18F-4]
Reply: 0.0276

A = C[N+](C)(Cc1cn(CC(=O)NC[C@H]2CC[C@H](C(=O)N[C@@H](Cc3ccc4ccccc4c3)C(=O)NCCCC[C@H](NC(=O)N[C@@H](CCC(=O)O)C(=O)O)C(=O)O)CC2)nn1)C[B-](F)(F)F [^18F-5]
B = C[N+](C)(Cc1cn(Cc2ccc(C(=O)NCCCC[C@H](NC(=O)N[C@@H](CCC(=O)O)C(=O)O)C(=O)O)cn2)nn1)C[B-](F)(F)F [^18F-3]
C = C[N+](C)(Cc1cn(Cc2ccc(C(=O)NCCCC[C@H](NC(=O)N[C@@H](CCC(=O)O)C(=O)O)C(=O)O)cc2)nn1)C[B-](F)(F)F [^18F-2]
D = O=C(O)CC[C@H](NC(=O)N[C@@H](CCCCNC(=O)[C@H](Cc1ccc2ccccc2c1)NC(=O)[C@H]1CC[C@H](CNC(=O)Cn2cc(C[n+]3ccc([B-](F)(F)F)cc3)nn2)CC1)C(=O)O)C(=O)O [^18F-6]
Query: Which order do these items take when sorted by rising Ki? List them. # output: labels, in the requested order
Reply: A, D, C, B

====

- Tested on: LNCaP xenografts
- Method: Ex vivo biodistribution and blocking studies in mice bearing LNCaP xenografts
- Run parameters: 1 h blocked (coinjection of DCFPyL 0.5 mg)
Reported endpoint: brain uptake (%ID/g)

Query: Value lookup for brain uptake; key = O=C(O)CC[C@H](NC(=O)N[C@@H](CCCCNC(=O)c1ccc(Cn2cc(C[n+]3ccc([B-](F)(F)F)cc3)nn2)nc1)C(=O)O)C(=O)O [^18F-4]
Reply: 0.02

Query: Value lookup for brain uptake; key = C[N+](C)(Cc1cn(Cc2ccc(C(=O)NCCCC[C@H](NC(=O)N[C@@H](CCC(=O)O)C(=O)O)C(=O)O)cn2)nn1)C[B-](F)(F)F [^18F-3]
Reply: 0.02

Query: Value lookup for brain uptake; key = C[N+](C)(Cc1cn(Cc2ccc(C(=O)NCCCC[C@H](NC(=O)N[C@@H](CCC(=O)O)C(=O)O)C(=O)O)cc2)nn1)C[B-](F)(F)F [^18F-2]
Reply: 0.02

====

- Test system: LNCaP xenografts
- Method: Ex vivo biodistribution and blocking studies in mice bearing LNCaP xenografts
- Run parameters: 1 h blocked (coinjection of DCFPyL 0.5 mg)
Reported endpoint: testes uptake (%ID/g)

Query: Value lookup for testes uptake; key = O=C(O)CC[C@H](NC(=O)N[C@@H](CCCCNC(=O)[C@H](Cc1ccc2ccccc2c1)NC(=O)[C@H]1CC[C@H](CNC(=O)Cn2cc(C[n+]3ccc([B-](F)(F)F)cc3)nn2)CC1)C(=O)O)C(=O)O [^18F-6]
Reply: 0.14

Query: Value lookup for testes uptake; key = C[N+](C)(Cc1cn(CC(=O)N[C@@H](CCC(=O)O)C(=O)NCCCC[C@H](NC(=O)[C@H](CCC(=O)O)NC(=O)Cn2cc(C[N+](C)(C)C[B-](F)(F)F)nn2)C(=O)NC[C@H]2CC[C@H](C(=O)N[C@@H](Cc3ccc4ccccc4c3)C(=O)NCCCC[C@H](NC(=O)N[C@@H](CCC(=O)O)C(=O)O)C(=O)O)CC2)nn1)C[B-](F)(F)F [^18F-8]
Reply: 0.18

Query: Value lookup for testes uptake; key = C[N+](C)(Cc1cn(Cc2ccc(C(=O)NCCCC[C@H](NC(=O)N[C@@H](CCC(=O)O)C(=O)O)C(=O)O)cn2)nn1)C[B-](F)(F)F [^18F-3]
Reply: 0.10
